# target.of.assay: Sterol O-acyltransferase 2 (Homo sapiens)
# Sequence (O75908 whole entry): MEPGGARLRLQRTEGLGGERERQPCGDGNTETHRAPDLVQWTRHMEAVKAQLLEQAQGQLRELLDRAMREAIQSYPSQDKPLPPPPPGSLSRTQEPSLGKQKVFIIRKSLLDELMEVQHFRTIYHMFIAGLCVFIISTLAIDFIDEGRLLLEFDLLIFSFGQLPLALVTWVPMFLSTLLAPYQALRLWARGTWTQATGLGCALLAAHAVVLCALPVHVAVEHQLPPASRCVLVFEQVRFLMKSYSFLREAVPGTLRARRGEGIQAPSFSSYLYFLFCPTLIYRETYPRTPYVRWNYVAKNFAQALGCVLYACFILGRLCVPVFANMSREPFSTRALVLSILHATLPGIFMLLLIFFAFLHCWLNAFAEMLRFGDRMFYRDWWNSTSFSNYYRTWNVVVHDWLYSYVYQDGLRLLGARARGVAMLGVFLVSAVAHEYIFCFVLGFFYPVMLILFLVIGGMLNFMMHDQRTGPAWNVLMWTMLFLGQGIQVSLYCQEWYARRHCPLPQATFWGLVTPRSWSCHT
experimental.readout: pIC50
pIC50 here: minus log base 10 of the concentration, concentration in moles per litre.

Requested field: pIC50. Item: "CCCCC(=O)O[C@H](CC=C(C)C)C1=CC(=O)c2c(O)ccc(O)c2C1=O"
4.07

Requested field: pIC50. Item: CC(C)=CC[C@@H](OC(=O)CC(C)(C)O)C1=CC(=O)c2c(O)ccc(O)c2C1=O [BETA-HYDROXYISOVALERYLSHIKONIN]
3.77

Requested field: pIC50. Item: "CCC(=O)O[C@H](CC=C(C)C)C1=CC(=O)c2c(O)ccc(O)c2C1=O"
4.54
